B1: mRNA-splicing (parent)
chain: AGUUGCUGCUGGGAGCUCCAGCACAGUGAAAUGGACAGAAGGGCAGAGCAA

variants of: B1; test: exon inclusion enrichment index; higher = more inclusion; WT1 exon 5 minigene, HEK293
reported metric: exon inclusion enrichment index

Worked set:
G38A :: 0.0459
G5C C6U G8C C9U U10C A29C A30C :: 2.52
G5U G8U C9U U27C G28U :: 0.0729
G42U G43U :: 0.54
G5A C6G U7G C9A G21U C22U :: 0.00236

response.value for A20C G21C (field: exon inclusion enrichment index) = 0.634

So, G5C C6A U7C G8A U10A A39C ? Its exon inclusion enrichment index was 0.0137

Please fill in: exon inclusion enrichment index reported for G5A C6G U7G C9A G13A A14C = 0.0219

Looking up G5A C6G U7G C9A G38A , I see its exon inclusion enrichment index listed as 0.000584

exon inclusion enrichment index reported for this variant G5A U7C G8A U10C A45G G46C : 3.06

Record C6A G8C C9A U10C , field exon inclusion enrichment index: 1.49
